Test system: SR
assay.name: NCI tumour cell line growth inhibition, 48 h
The source made the active and inactive calls. Cut-off read from the data, not from the text of the source: active = GI50 up to about 1.1 µM and inactive = higher.
measurement.label: GI50

Prompt: Determine its reported GI50: CC(=O)N(CN1C(=O)CCC1C(=O)O)c1ccccc1 (stereo unspecified)
Response: > 100 µM (inactive)

Prompt: Determine its reported GI50: COC(=O)C1CC23CCCN4CCC5(c6ccccc6N(C=O)C15CC2)C43 (stereo unspecified)
Response: > 100 µM (inactive)

Prompt: Determine its reported GI50: `CC(C)(C)OC(=O)N1Cc2cc(O)ccc2C[C@H]1C(=O)O`
Response: > 100 µM (inactive)

Prompt: Determine its reported GI50: `COC(=O)c1c(C)[n+]([O-])c2cc(Cl)c(Cl)cc2[n+]1[O-]`
Response: 6.17 µM (inactive)

Prompt: Determine its reported GI50: CC1C(=O)C(C)C(c2ccccc2)N(N=O)C1c1ccccc1 (stereo unspecified)
Response: > 439 µM (inactive)

Prompt: Determine its reported GI50: COc1cc(C2c3cc4c(cc3C(O)C3CCC(=O)N23)OCO4)cc(OC)c1OC (stereo unspecified)
Response: 39.9 µM (inactive)

Prompt: Determine its reported GI50: C=C(C)C1CCC2=CC(CC3(C)OC3C3=CC(C(=O)OC)=C(C1)O3)OC2=O (stereo unspecified)
Response: 83.2 µM (inactive)

Prompt: Determine its reported GI50: CN(C)CC1(C)CC/C(=C\c2ccc3c(c2)OCO3)C1=O (stereo unspecified)
Response: 45.9 µM (inactive)

Prompt: Determine its reported GI50: `Cc1nc(O)c(Cc2ccccc2O)c(-c2ccccc2)n1`
Response: > 100 µM (inactive)

Prompt: Determine its reported GI50: `Oc1ccc(-c2nn3c(CCCCCCCCc4nnc5sc(-c6ccc(O)cc6)nn45)nnc3s2)cc1`
Response: > 100 µM (inactive)

Prompt: Determine its reported GI50: COc1cc2c(cc1O)C(C)Cc1cc3c(cc1N(C)CC2)OCO3 (stereo unspecified)
Response: 4.45 µM (inactive)

Origin of the recorded values: ChEMBL document CHEMBL1201862
